Assay: Acute oral toxicity (LD50)
Conditions: mouse, in vivo, po
measurement.name: LD50

QUERY: Quick one: give measured LD50 for N[C@H](C(=O)O)[C@@H](O)c1ccc(O)c(O)c1 (relative stereo) [erythro-DOPS, erythro-3-(3,4-dihydroxyphenyl)serine]
RESULT: ≥ 5000 mg/kg
